- ASSAYED SYSTEM: recombinant Nurr1 LBD (Homo sapiens, UniProt P43354)
- Construct: Nurr1 LBD protein (15 μM, expressed as described previously[18])
- Sequence (P43354 360-595 limits assumed): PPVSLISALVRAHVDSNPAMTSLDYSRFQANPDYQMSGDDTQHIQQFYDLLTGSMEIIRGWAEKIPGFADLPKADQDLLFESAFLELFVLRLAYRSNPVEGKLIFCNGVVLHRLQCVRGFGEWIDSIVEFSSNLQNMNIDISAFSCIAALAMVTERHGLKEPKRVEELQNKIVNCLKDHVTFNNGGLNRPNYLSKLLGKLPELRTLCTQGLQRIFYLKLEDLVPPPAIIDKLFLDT
- ASSAY EXPLANATION: Isothermal titration calorimetry (ITC)
- MEASUREMENT CONDITIONS: 25 °C
ASSAY READOUT: Kd (nM)
Give the value in nM but do not write nM after it.

## Task What measured Kd goes with COc1cccc(-c2ccc(NC(=O)C3=C(c4nn[nH]n4)CCC3)c(F)c2)c1 [compound 32] ?
## Result 200

###

Entries and their efficacy_NR4A2 values follow.
- ASSAYED SYSTEM: Nurr1 (Homo sapiens)
- Construct: expressed in transfected cells; host or cells: HEK293T
- ASSAY EXPLANATION: Gal4-Nurr1 hybrid reporter gene assay
- Assay type: cell-based
- MEASUREMENT CONDITIONS: supplementary csv; max. activation in %

## Task What measured efficacy_NR4A2 goes with `[2H]C([2H])([2H])Oc1cccc(-c2c(F)c(F)c(NC(=O)c3ccsc3-c3nn[nH]n3)c(F)c2F)c1` ?
## Result 214%

## Task What about `[2H]C([2H])([2H])Oc1cccc(-c2c(F)c(F)c(NC(=O)c3ccsc3S(C)(=O)=O)c(F)c2F)c1` ?
## Result 205%

## Task What about [2H]C([2H])([2H])Oc1cccc(-c2c(F)c(F)c(NC(=O)c3ccsc3S(C)(=N)=O)c(F)c2F)c1 (stereo not shown) ?
## Result 217%

## Task What about `[2H]C([2H])([2H])Oc1cccc(-c2c(F)c(F)c(NC(=O)C3=C(C(=O)O)COC3)c(F)c2F)c1` ?
## Result 250%

###

Entries and their selectivity index DHODH/Nurr1 values follow.
- ASSAYED SYSTEM: Nurr1 (Homo sapiens)
- Construct: expressed in transfected cells; host or cells: HEK293T
- ASSAY EXPLANATION: Gal4-Nurr1 hybrid reporter gene assay
- Assay type: cell-based
- MEASUREMENT CONDITIONS: IC50(DHODH) / EC50(Nurr1)
Reply with just the number.

{"COMPOUND": "[2H]C([2H])([2H])Oc1cccc(-c2c(F)c(F)c(NC(=O)c3ccsc3-c3c(O)c(=O)c3=O)c(F)c2F)c1 [compound 17]", "selectivity index DHODH/Nurr1": 7}

## Task What measured selectivity index DHODH/Nurr1 goes with [2H]C([2H])([2H])Oc1cccc(-c2c(F)c(F)c(NC(=O)c3ccsc3-c3noc(=O)[nH]3)c(F)c2F)c1 [compound 18] ?
## Result 13

## Task What about [2H]C([2H])([2H])Oc1cccc(-c2c(F)c(F)c(NC(=O)c3ccsc3-c3nn[nH]n3)c(F)c2F)c1 [compound 19] ?
## Result 28

## Task What about [2H]C([2H])([2H])Oc1cccc(-c2c(F)c(F)c(NC(=O)c3cscc3C3=NOS(=O)N3)c(F)c2F)c1 (centres unmarked) [compound 28] ?
## Result 30

###

- ASSAYED SYSTEM: DHODH (Homo sapiens)
- Construct: using an N-terminally truncated recombinant DHODH enzyme as described previously[20]
- Sequence (Q02127 31-395): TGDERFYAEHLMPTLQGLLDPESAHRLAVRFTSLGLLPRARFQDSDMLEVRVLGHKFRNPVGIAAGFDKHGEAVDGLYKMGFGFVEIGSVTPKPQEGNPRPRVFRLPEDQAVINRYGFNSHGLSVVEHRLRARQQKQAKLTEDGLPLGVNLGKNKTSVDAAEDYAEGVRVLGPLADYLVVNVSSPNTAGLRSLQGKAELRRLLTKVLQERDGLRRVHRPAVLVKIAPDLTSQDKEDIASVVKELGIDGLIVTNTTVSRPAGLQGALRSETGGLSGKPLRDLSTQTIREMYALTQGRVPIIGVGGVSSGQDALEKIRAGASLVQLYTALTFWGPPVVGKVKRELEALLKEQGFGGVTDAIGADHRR
- ASSAY EXPLANATION: DHODH inhibition colorimetric assay on recombinant human protein
- Assay type: biochemical
- MEASUREMENT CONDITIONS: recombinant human DHODH, colorimetric; mean ± S.E.M., n ≥ 3; read-out: IC50 (DHODH)
The label is true for IC50 below 1000 nM and false for IC50 equal to or exceeding 1000 nM.

Observe how each entry below is paired with its result.
{"COMPOUND": "[2H]C([2H])([2H])Oc1cccc(-c2c(F)c(F)c(NC(=O)c3cscc3-c3n[nH]c(=O)o3)c(F)c2F)c1 [compound 26]", "GROUP LABEL": "true"}
{"COMPOUND": "[2H]C([2H])([2H])Oc1cccc(-c2c(F)c(F)c(NC(=O)c3ccccc3-c3nn[nH]n3)c(F)c2F)c1 [compound 31]", "GROUP LABEL": "true"}
{"COMPOUND": "[2H]C([2H])([2H])Oc1cccc(-c2c(F)c(F)c(NC(=O)c3cscc3C3=NOS(=O)N3)c(F)c2F)c1 (stereo not drawn) [compound 28]", "GROUP LABEL": "false"}
{"COMPOUND": "[2H]C([2H])([2H])Oc1cccc(-c2c(F)c(F)c(NC(=O)C3=C(c4nn[nH]n4)COC3)c(F)c2F)c1 [compound 30]", "GROUP LABEL": "false"}
{"COMPOUND": "[2H]C([2H])([2H])Oc1cccc(-c2c(F)c(F)c(NC(=O)c3ccsc3S(=O)(=O)NC(C)=O)c(F)c2F)c1 [compound 14]", "GROUP LABEL": "false"}
{"COMPOUND": "COc1cccc(-c2ccc(NC(=O)C3=C(c4nn[nH]n4)CCC3)c(F)c2)c1 [compound 32]", "GROUP LABEL": "false"}
{"COMPOUND": "[2H]C([2H])([2H])Oc1cccc(-c2c(F)c(F)c(NC(=O)c3ccsc3S(N)(=O)=O)c(F)c2F)c1 [compound 13]", "GROUP LABEL": "false"}
{"COMPOUND": "[2H]C([2H])([2H])Oc1cccc(-c2c(F)c(F)c(NC(=O)c3cscc3-c3n[nH]c(=S)o3)c(F)c2F)c1 [compound 27]", "GROUP LABEL": "true"}
{"COMPOUND": "[2H]C([2H])([2H])Oc1cccc(-c2c(F)c(F)c(NC(=O)c3cscc3-c3nn[nH]n3)c(F)c2F)c1 [compound 22]", "GROUP LABEL": "true"}
{"COMPOUND": "[2H]C([2H])([2H])Oc1cccc(-c2c(F)c(F)c(NC(=O)c3cscc3-c3noc(=O)[nH]3)c(F)c2F)c1 [compound 21]", "GROUP LABEL": "true"}

## Task Consider [2H]C([2H])([2H])Oc1cccc(-c2c(F)c(F)c(NC(=O)c3ccsc3-c3noc(=O)[nH]3)c(F)c2F)c1 [compound 18] . Does its IC50 lie strictly below 1000 nM?
## Result true

## Task What about [2H]C([2H])([2H])Oc1cccc(-c2c(F)c(F)c(NC(=O)c3ccsc3-c3nn[nH]n3)c(F)c2F)c1 [compound 19] ?
## Result true

## Task What about [2H]C([2H])([2H])Oc1cccc(-c2c(F)c(F)c(NC(=O)c3cscc3-c3noc(=S)[nH]3)c(F)c2F)c1 [compound 23] ?
## Result true

## Task What about [2H]C([2H])([2H])Oc1cccc(-c2c(F)c(F)c(NC(=O)c3ccsc3-c3c(O)c(=O)c3=O)c(F)c2F)c1 [compound 17] ?
## Result true

## Task What about [2H]C([2H])([2H])Oc1cccc(-c2c(F)c(F)c(NC(=O)c3cscc3-c3nc(=O)on3C)c(F)c2F)c1 [compound 24] ?
## Result false
